Measured values drawn from patent US20260116991A1 for this set.

Item-by-item account of OD450 at 0.01 nM antibody
- TESTED_ON: T1, murine GPC3-his protein (Sino Biological, Cat. No. 50989-M08B) (murine, UniProt Q8CFZ4 25-558)
- T1 construct: Bought protein; also called murine GPC3 protein
- MEASUREMENT_PROTOCOL: ELISA, coated murine GPC3-His;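 note: antigen coated on plates at 1 µg/mL, test antibody bound for 2 h at 37 °C, detected with HRP-conjugated secondary antibody and TMB substrate after acid stop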
I only need the number, in OD450 nm, no unit after it.

The examples below pair each entry with its known result.
F1.111.11 human-murine chimeric antibody (antibody, human IgG1, kappa, V domains shown) VH: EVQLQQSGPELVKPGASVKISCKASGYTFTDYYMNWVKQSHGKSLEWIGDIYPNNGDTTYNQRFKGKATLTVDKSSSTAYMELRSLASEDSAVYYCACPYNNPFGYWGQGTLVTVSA VL: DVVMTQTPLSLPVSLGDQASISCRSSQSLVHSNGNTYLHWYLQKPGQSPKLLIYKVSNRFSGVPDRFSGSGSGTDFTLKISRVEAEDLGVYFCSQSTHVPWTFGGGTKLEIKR	0.62
F2.55.11 human-murine chimeric antibody (antibody, human IgG1, kappa, V domains shown) VH: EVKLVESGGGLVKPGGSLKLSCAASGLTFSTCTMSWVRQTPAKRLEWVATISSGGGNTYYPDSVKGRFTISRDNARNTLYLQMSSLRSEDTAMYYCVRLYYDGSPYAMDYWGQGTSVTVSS VL: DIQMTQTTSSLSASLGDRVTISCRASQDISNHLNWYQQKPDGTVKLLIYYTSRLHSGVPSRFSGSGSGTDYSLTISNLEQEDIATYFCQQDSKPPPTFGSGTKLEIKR	0.05

Attention now turns to another entry.
INPUT: Which OD450 at 0.01 nM antibody is listed for F1.153.1 human-murine chimeric antibody (antibody, human IgG1, kappa, V domains shown) VH: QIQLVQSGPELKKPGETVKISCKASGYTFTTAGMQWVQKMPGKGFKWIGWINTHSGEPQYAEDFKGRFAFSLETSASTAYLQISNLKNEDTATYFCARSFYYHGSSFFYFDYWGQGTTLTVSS VL: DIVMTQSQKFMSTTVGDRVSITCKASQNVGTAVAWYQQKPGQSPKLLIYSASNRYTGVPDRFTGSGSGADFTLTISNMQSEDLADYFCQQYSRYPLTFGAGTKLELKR ?
OUTPUT: 0.04
